B1: MIA2 (parent)
chain: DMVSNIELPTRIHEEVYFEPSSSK

Variants of: B1
Assay: protein stability index of a GFP-peptide fusion (GPS, HEK-293T) (PSI 1-6); higher = more stable;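 also: lentivirally expressed fusions sorted by FACS into six bins by GFP to DsRed ratio, PSI derived from sequencing read proportions per bin multiplied by bin number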
Conditions: c terminus: a fixed tail appended
readoutType: protein stability index

1) M2W : 2.8
2) I6K : 4.68
3) S4D : 3.98

Query: Query (variant): N5Q ; field requested: protein stability index
Reply: 4.33

Query: Suppose we examine the variant E7K ; what protein stability index value has been reported?
Reply: 3.03

Query: What value of protein stability index has been reported for the following variant? S4E
Reply: 4.48

Query: For the variant D1L , what protein stability index is on record?
Reply: 3.11

Query: For the variant I6G , what protein stability index is on record?
Reply: 4.52

Query: May I ask what protein stability index has been recorded for N5S ?
Reply: 4.46
